Data origin: ChEMBL document CHEMBL2029237

# Assay system: Melanin-concentrating hormone receptor 1 (Homo sapiens, UniProt Q99705)
# Sequence (Q99705 whole entry): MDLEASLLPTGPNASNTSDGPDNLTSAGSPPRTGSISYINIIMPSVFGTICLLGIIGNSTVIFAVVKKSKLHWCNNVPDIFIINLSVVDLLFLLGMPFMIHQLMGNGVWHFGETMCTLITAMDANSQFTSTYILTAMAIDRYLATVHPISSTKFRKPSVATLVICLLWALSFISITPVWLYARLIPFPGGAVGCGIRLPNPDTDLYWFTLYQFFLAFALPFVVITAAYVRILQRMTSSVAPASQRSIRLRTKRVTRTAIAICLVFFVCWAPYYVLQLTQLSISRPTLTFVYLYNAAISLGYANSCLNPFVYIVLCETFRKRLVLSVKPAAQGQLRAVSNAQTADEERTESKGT
# Experimental details: Antagonist activity at human MCHR1 expressed in CHO cells assessed as inhibition of MCH-induced [3H]arachidonic acid release […] by liquid scintillation counting
# Assay type: functional, cell-based
# Experimental context: in the assay text read “45 mins” for “16 hrs”
Answer each item with its documented log10(IC50).
Quick note: numbers are log10 of IC50, with nM as the unit.

Q: Need log10(IC50), item Cc1cc2cc(CN3CCCC3)cnc2cc1NC(=O)c1ccc(-c2ccc(F)cc2)cc1
A: 1.00

Q: Need log10(IC50), item O=C(Nc1ccc2cc(CN3CCCC3)ccc2c1)c1ccc(-c2ccc(F)cc2)cc1
A: 0.95

Q: Need log10(IC50), item Cc1c(NC(=O)c2ccc(-c3ccc(F)cc3)cc2)ccc2cc(CN3CCCC3)cnc12
A: 0.45

Q: Need log10(IC50), item O=C(Nc1ccc2c(c1)OCC(CN1CCCC1)=C2)c1ccc(-c2ccc(F)cc2)cc1
A: 1.00

Q: Need log10(IC50), item O=C(Nc1ccc2nc(CN3CCCC3)ccc2c1)c1ccc(-c2ccc(F)cc2)cc1
A: 1.60

Q: Need log10(IC50), item COc1ccc(-c2ccc(C(=O)Nc3ccc4cc(CN5CCCC5)cnc4c3C)cc2)cc1
A: 0.63

====

# Assay system: 5-hydroxytryptamine receptor 2C (Homo sapiens, UniProt P28335)
# Sequence (P28335 whole entry): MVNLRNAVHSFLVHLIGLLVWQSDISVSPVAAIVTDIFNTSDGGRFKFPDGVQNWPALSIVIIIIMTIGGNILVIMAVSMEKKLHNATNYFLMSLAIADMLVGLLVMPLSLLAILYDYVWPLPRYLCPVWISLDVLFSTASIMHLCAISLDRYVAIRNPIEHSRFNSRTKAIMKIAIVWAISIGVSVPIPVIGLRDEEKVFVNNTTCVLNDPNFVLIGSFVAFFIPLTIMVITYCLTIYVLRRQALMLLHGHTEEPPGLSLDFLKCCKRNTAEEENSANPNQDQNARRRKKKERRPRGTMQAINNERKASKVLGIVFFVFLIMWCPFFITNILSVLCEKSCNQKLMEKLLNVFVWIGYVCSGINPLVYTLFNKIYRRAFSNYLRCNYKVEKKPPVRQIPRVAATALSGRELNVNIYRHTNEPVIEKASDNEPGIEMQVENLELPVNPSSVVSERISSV
# Experimental details: Displacement of [3H]mesulergine from human 5HT2C receptor expressed in CHO cells after 1 hr by scintillation counting
Property measured: pIC50
To interpret pIC50, take it as minus log10 of a concentration measured in moles per litre.

Q: Need pIC50, item Cc1ccc(-c2ccc(C(=O)Nc3ccc4cc(CN5CCCC5)cnc4c3C)cc2)cc1
A: 6.27

Q: Need pIC50, item O=C(Nc1ccc2cc(CN3CCCC3)cnc2c1)N1CCC(c2ccc(Cl)cc2)CC1
A: 7.26

====

# Assay system: UniProtKB P28335
# Experimental details: Displacement of [3H]mesulergine from human 5HT2C receptor expressed in CHO cells after 1 hr by scintillation counting
// NB: equality with 300 nM counts as Not met; only IC50 strictly below is Met

Q: Please let me know if Cc1c(NC(=O)c2ccc(-c3ccccc3)cc2)ccc2cc(CN3CCCC3)cnc12 shows IC50 below 300 nM.
A: Not met

Q: Please let me know if O=C(Nc1ccc2cc(CN3CCCC3)cnc2c1)c1ccc(-c2ccc(Cl)cc2)cc1 shows IC50 below 300 nM.
A: Not met

Q: Please let me know if CCc1c(NC(=O)c2ccc(-c3ccc(F)cc3)cc2)ccc2cc(CN3CCCC3)cnc12 shows IC50 below 300 nM.
A: Not met

Q: Please let me know if O=C(Nc1ccc2cc(CN3CCCC3)cnc2c1)c1ccc(-c2ccc(F)cc2)nc1 shows IC50 below 300 nM.
A: Not met

Q: Please let me know if O=C(Nc1ccc2c(c1)OCC(CN1CCCC1)=C2)c1ccc(-c2ccc(F)cc2)cc1 shows IC50 below 300 nM.
A: Met

Q: Please let me know if O=C(Nc1cc2ncc(CN3CCCC3)cc2cc1F)c1ccc(-c2ccc(F)cc2)cc1 shows IC50 below 300 nM.
A: Met

Q: Please let me know if COc1ccc(-c2ccc(C(=O)Nc3ccc4cc(CN5CCCC5)cnc4c3C)cc2)cc1 shows IC50 below 300 nM.
A: Not met

Q: Please let me know if O=C(Nc1cc2ncc(CN3CCCC3)cc2cc1Cl)c1ccc(-c2ccc(F)cc2)cc1 shows IC50 below 300 nM.
A: Met

Q: Please let me know if O=C(Nc1ccc2cc(CN3CCCC3)cnc2c1)c1ccc(-c2ccc(F)cc2)cc1 shows IC50 below 300 nM.
A: Met

Q: Please let me know if O=C(Nc1ccc2cc(CN3CCCC3)cnc2c1F)c1ccc(-c2ccc(F)cc2)cc1 shows IC50 below 300 nM.
A: Met

Q: Please let me know if O=C(Nc1ccc2cc(CN3CCCC3)ccc2c1)c1ccc(-c2ccc(F)cc2)cc1 shows IC50 below 300 nM.
A: Met

Q: Please let me know if Cc1ccc(-c2ccc(C(=O)Nc3ccc4cc(CN5CCCC5)cnc4c3)cn2)cc1 shows IC50 below 300 nM.
A: Not met

Q: Please let me know if O=C(Nc1ccc2cc(CN3CCCC3)cnc2c1)c1ccc(-c2ccccc2)cc1 shows IC50 below 300 nM.
A: Not met

Q: Please let me know if O=C(Nc1ccc2c(c1)CCC(CN1CCCC1)=C2)c1ccc(-c2ccc(F)cc2)cc1 shows IC50 below 300 nM.
A: Met

Q: Please let me know if Cc1cc2cc(CN3CCCC3)cnc2cc1NC(=O)c1ccc(-c2ccc(F)cc2)cc1 shows IC50 below 300 nM.
A: Met

Q: Please let me know if COc1ccc(-c2ccc(C(=O)Nc3ccc4cc(CN5CCCC5)cnc4c3)cc2)cc1 shows IC50 below 300 nM.
A: Not met

Q: Please let me know if O=C(Nc1ccc2cc(CN3CCCC3)cnc2c1)c1ccc(-c2ccc(Cl)cc2)nc1 shows IC50 below 300 nM.
A: Not met

Q: Please let me know if O=C(Nc1ccc2nc(CN3CCCC3)ccc2c1)c1ccc(-c2ccc(F)cc2)cc1 shows IC50 below 300 nM.
A: Met

Q: Please let me know if Cc1ccc(-c2ccc(C(=O)Nc3ccc4cc(CN5CCCC5)cnc4c3)cc2)cc1 shows IC50 below 300 nM.
A: Not met

Q: Please let me know if Cc1c(NC(=O)c2ccc(-c3ccc(Cl)cc3)cc2)ccc2cc(CN3CCCC3)cnc12 shows IC50 below 300 nM.
A: Not met
